tested on: TNK1; settings: concentration: 1 μM, replicates: in singlicate; n = 1;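 further: KINOMEscan kinase panel screen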
Outcome measure: %Inh (%)
Report the value in % with no unit label.

Some solved cases for reference:
> print(dat)
                                   molecule  unit.of.measurement  recorded.result
1  Nc1n[nH]c2cnc(-c3ccccc3)cc12 [SB-642124]                    %                0
2  COc1cccc(NC(=O)NC2CCN(c3ccnc(Nc4cc(OC)c(OC)c(OC)c4)n3)C2)c1 (stereo not drawn) [GSK1379763]                    %                0
3        c1ccc(-c2cnc3nccnn23)cc1 [AH20685]                    %                9
4  COc1ccc(-c2coc3ccc(-c4nnc(SCc5ccc(OC)c(C(F)(F)F)c5)o4)cc23)cc1                    %                9

Lookup: Missing value: %Inh, TNK1, entry `Cn1cc(-c2[nH]c3cc(NC(=O)[C@H](N)C4CCCCC4)cc4c3c2C=NNC4=O)cn1` . Fill in?
Found: 68

Lookup: Missing value: %Inh, TNK1, entry Cc1ccc(F)c(C(=O)Nc2cccc(-c3nn4ccccc4c3-c3ccnc(Nc4cccc(F)c4)n3)c2)c1F [GSK361061] . Fill in?
Found: 88

Lookup: Missing value: %Inh, TNK1, entry Cc1ccc(C)c(NC(=O)NC2CCN(c3ccnc(Nc4ccc(F)cc4)n3)C2)c1 (stereo not drawn) [GSK1379720] . Fill in?
Found: 0

Lookup: Missing value: %Inh, TNK1, entry Cl.c1ccc(-c2ccc3c(Nc4ccc5[nH]ccc5c4)ccnc3c2)nc1 [GW440138] . Fill in?
Found: 24

Lookup: Missing value: %Inh, TNK1, entry `CC(=O)Nc1nc2cnc(Nc3cc(NC(=O)c4cccc(C5(C#N)CC5)c4Cl)ccc3C)nc2s1` . Fill in?
Found: 88

Values compiled from paper PMC5540273.
